These measurements were taken from PubChem BioAssay AID2060910.

- System: 242566-281-R-J2-PDC complex spheroid viability
- PROCEDURE TEXT: Anticancer human tumor 242566-281-R-J2-PDC patient-derived pancreatic carcinoma cell line growth inhibition [RAS]
- ASSAY SETUP: second compound 0.000949 µM; first compound 1 µM; active compounds read low
Task for the reader: assign each of the following molecules its reported viability, T/C.

// known answers, use as guide
• O=C(c1ccc(F)c(F)c1Nc1ccc(I)cc1F)N1CC(O)([C@@H]2CCCCN2)C1 + CCn1c(-c2cc(N3CCN(C)CC3)cnc2C(C)OC)c2c3cc(ccc31)-c1csc(n1)CC(NC(=O)C1CC1C)C(=O)N1CCCC(N1)C(=O)OCC(C)(C)C2 = 16.6%
• Cc1nc(N2CCC3(CC2)COC(C)C3N)c(CO)nc1Sc1ccnc(N)c1Cl (stereo not drawn) + CCn1c(-c2cc(N3CCN(C)CC3)cnc2C(C)OC)c2c3cc(ccc31)-c1csc(n1)CC(NC(=O)C1CC1C)C(=O)N1CCCC(N1)C(=O)OCC(C)(C)C2 = 45%
• CC(Nc1ccc2c(c1)OCCn1cc(N3C(=O)OCC3C(F)F)nc1-2)C(N)=O (stereo not drawn) + CCn1c(-c2cc(N3CCN(C)CC3)cnc2C(C)OC)c2c3cc(ccc31)-c1csc(n1)CC(NC(=O)C1CC1C)C(=O)N1CCCC(N1)C(=O)OCC(C)(C)C2 = 39.1%
• CC(=O)OC12COC1CC(O)C1(C)C(=O)C(O)C3=C(C)C(OC(=O)C(O)C(NC(=O)OC(C)(C)C)c4ccccc4)CC(O)(C(OC(=O)c4ccccc4)C21)C3(C)C (stereo not drawn) + CCn1c(-c2cc(N3CCN(C)CC3)cnc2C(C)OC)c2c3cc(ccc31)-c1csc(n1)CC(NC(=O)C1CC1C)C(=O)N1CCCC(N1)C(=O)OCC(C)(C)C2 = 32.2%
• CC(=O)OC12COC1CC(O)C1(C)C(=O)C(O)C3=C(C)C(OC(=O)C(O)C(NC(=O)OC(C)(C)C)c4ccccc4)CC(O)(C(OC(=O)c4ccccc4)C21)C3(C)C (stereo not drawn) + CCn1c(-c2cccnc2C(C)OC)c2c3cc(ccc31)N1CCOC(CC(NC(=O)C(C(C)C)N(C)C(=O)C3(F)CCN(C(=O)C#CC(C)(C)N(C)C)CC3)C(=O)N3CCCC(N3)C(=O)OCC(C)(C)C2)C1 = 35.8%

Would you mind listing viability, T/C for each of the following molecules?
1. C=CC(=O)Nc1cc(Nc2nccc(-c3cn(C)c4ccccc34)n2)c(OC)cc1N(C)CCN(C)C + CCn1c(-c2cc(N3CCN(C)CC3)cnc2C(C)OC)c2c3cc(ccc31)-c1csc(n1)CC(NC(=O)C1CC1C)C(=O)N1CCCC(N1)C(=O)OCC(C)(C)C2
2. Cc1nc(N2CCC3(CC2)COC(C)C3N)c(CO)nc1Sc1ccnc(N)c1Cl (stereo not drawn) + CCn1c(-c2cccnc2C(C)OC)c2c3cc(ccc31)N1CCOC(CC(NC(=O)C(C(C)C)N(C)C(=O)C3(F)CCN(C(=O)C#CC(C)(C)N(C)C)CC3)C(=O)N3CCCC(N3)C(=O)OCC(C)(C)C2)C1
3. CC1(O)CCCC1n1c(=O)c(C(F)F)cc2cnc(NC3CCN(S(C)(=O)=O)CC3)nc21 (stereo not drawn) + CCn1c(-c2cccnc2C(C)OC)c2c3cc(ccc31)N1CCOC(CC(NC(=O)C(C(C)C)N(C)C(=O)C3(F)CCN(C(=O)C#CC(C)(C)N(C)C)CC3)C(=O)N3CCCC(N3)C(=O)OCC(C)(C)C2)C1

1: 25.3%; 2: 77.4%; 3: 94.3%

----------
Assign viability, T/C to each entry below.
- Tested on: 242566-281-R-J2-PDC complex spheroid viability
- PROCEDURE TEXT: Anticancer human tumor 242566-281-R-J2-PDC cell line growth inhibition [RAS];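 note: spheroids exposed to compound for 7 days before readout; 100% = DMSO vehicle control wells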
- ASSAY SETUP: second compound 0.316 µM; first compound 0.0316 µM; active compounds read low
Numbers only, in %.

As a guide, the following entries are already answered.
• CC(=O)OC12COC1CC(O)C1(C)C(=O)C(O)C3=C(C)C(OC(=O)C(O)C(NC(=O)OC(C)(C)C)c4ccccc4)CC(O)(C(OC(=O)c4ccccc4)C21)C3(C)C (centres undefined) + C=CC(=O)N1CCN(c2nc(OCC3CCCN3C)nc3c(F)c(-c4nc(N)cc(C)c4C(F)(F)F)c(Cl)cc23)C(C)C1 = 64.9
• O=C(c1ccc(F)c(F)c1Nc1ccc(I)cc1F)N1CC(O)([C@@H]2CCCCN2)C1 + C=CC(=O)N1CCN(c2nc(OCC3CCCN3C)nc3c(F)c(-c4nc(N)cc(C)c4C(F)(F)F)c(Cl)cc23)C(C)C1 = 68.3

Hey, quick one: what's viability, T/C for each of these?
1. CC(C)NCC(C(=O)N1CCN(c2ncnc3c2C(C)CC3O)CC1)c1ccc(Cl)cc1 (centres undefined) + C=CC(=O)N1CCN(c2nc(OCC3CCCN3C)nc3c(F)c(-c4nc(N)cc(C)c4C(F)(F)F)c(Cl)cc23)C(C)C1
2. C=CC(=O)Nc1cc(Nc2nccc(-c3cn(C)c4ccccc34)n2)c(OC)cc1N(C)CCN(C)C + C#Cc1c(F)ccc2cc(O)cc(-c3ncc4c(N5CC6CCC(C5)N6)nc(OCC56CCCN5CC(F)C6)nc4c3F)c12
3. Cc1nc(N2CCC3(CC2)COC(C)C3N)c(CO)nc1Sc1ccnc(N)c1Cl (centres undefined) + C=CC(=O)N1CCN(c2nc(OCC3CCCN3C)nc3c(F)c(-c4nc(N)cc(C)c4C(F)(F)F)c(Cl)cc23)C(C)C1
4. CCC(CC)c1cc(NC2CCC(N)C2)n2nccc2n1 (centres undefined) + C=CC(=O)N1CCN(c2nc(OCC3CCCN3C)nc3c(F)c(-c4nc(N)cc(C)c4C(F)(F)F)c(Cl)cc23)C(C)C1
5. CC(Nc1ccc2c(c1)OCCn1cc(N3C(=O)OCC3C(F)F)nc1-2)C(N)=O (centres undefined) + C#Cc1c(F)ccc2cc(O)cc(-c3ncc4c(N5CC6CCC(C5)N6)nc(OCC56CCCN5CC(F)C6)nc4c3F)c12

[98.6, 66, 132, 149, 68]

Field: viability, T/C. Fill in for each record below.
1. CC(=O)OC12COC1CC(O)C1(C)C(=O)C(O)C3=C(C)C(OC(=O)C(O)C(NC(=O)OC(C)(C)C)c4ccccc4)CC(O)(C(OC(=O)c4ccccc4)C21)C3(C)C (centres undefined) + C#Cc1c(F)ccc2cc(O)cc(-c3ncc4c(N5CC6CCC(C5)N6)nc(OCC56CCCN5CC(F)C6)nc4c3F)c12
2. CC1(O)CCCC1n1c(=O)c(C(F)F)cc2cnc(NC3CCN(S(C)(=O)=O)CC3)nc21 (centres undefined) + C#Cc1c(F)ccc2cc(O)cc(-c3ncc4c(N5CC6CCC(C5)N6)nc(OCC56CCCN5CC(F)C6)nc4c3F)c12

[45.7, 69.3]

----------
- Tested on: 242566-281-R-J2-PDC complex spheroid viability
- PROCEDURE TEXT: Anticancer human tumor 242566-281-R-J2-PDC cell line growth inhibition [RAS];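 note: spheroids exposed to compound for 7 days before readout; 100% = DMSO vehicle control wells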
- ASSAY SETUP: second compound 0.00316 µM; first compound 0.1 µM; active compounds read low
Assignment: determine reported viability, T/C for the given compounds.
One number for each entry, in %.

Solved entries:
- CC(C)NCC(C(=O)N1CCN(c2ncnc3c2C(C)CC3O)CC1)c1ccc(Cl)cc1 (stereo not given) + C=CC(=O)N1CCN(c2nc(OCC3CCCN3C)nc3c(F)c(-c4nc(N)cc(C)c4C(F)(F)F)c(Cl)cc23)C(C)C1: 99.9
- CCC(CC)c1cc(NC2CCC(N)C2)n2nccc2n1 (stereo not given) + C=CC(=O)N1CCN(c2nc(OCC3CCCN3C)nc3c(F)c(-c4nc(N)cc(C)c4C(F)(F)F)c(Cl)cc23)C(C)C1: 141
- NC1c2ccccc2OC12CCN(c1cnc3c(N4CCCc5ncccc54)n[nH]c3n1)CC2 (stereo not given) + C=CC(=O)N1CCN(c2nc(OCC3CCCN3C)nc3c(F)c(-c4nc(N)cc(C)c4C(F)(F)F)c(Cl)cc23)C(C)C1: 128
- CC(=O)OC12COC1CC(O)C1(C)C(=O)C(O)C3=C(C)C(OC(=O)C(O)C(NC(=O)OC(C)(C)C)c4ccccc4)CC(O)(C(OC(=O)c4ccccc4)C21)C3(C)C (stereo not given) + C=CC(=O)N1CCN(c2nc(OCC3CCCN3C)nc3c(F)c(-c4nc(N)cc(C)c4C(F)(F)F)c(Cl)cc23)C(C)C1: 53.8

--- query ---
Consider the compound Nc1ccn(C2OC(CO)C(O)C2(F)F)c(=O)n1 (stereo not given) + C=CC(=O)N1CCN(c2nc(OCC3CCCN3C)nc3c(F)c(-c4nc(N)cc(C)c4C(F)(F)F)c(Cl)cc23)C(C)C1 and give its measured viability, T/C.
52.1
